# SYSTEM NAME: GABA-A receptor; anion channel (Rattus norvegicus) (UniProt O09028+P15431+P18506+P18508+P19969+P20236+P23574+P23576+P28471+P28473+P30191+P62813+P63079+P63138+Q91ZM7+Q9ES14)
# ASSAY OVERVIEW: Relative binding to GABA-A receptor in the presence and absence of GABA
# Format: protein-complex assay
METRIC NAME: Ratio

Reference set, count: 5
COMPOUND	Ratio
COc1ccc2c(c1)ncc1c(=O)n(-c3ccccc3)[nH]c12	0.97
O=C1C2C=Nc3ccccc3C2=NN1c1ccccc1 (stereo unspecified)	0.99
O=C1C2C=Nc3ccccc3C2=NN1c1ccc(Cl)cc1 (stereo unspecified)	1.07
O=c1c2cnc3ccccc3c2[nH]n1-c1ccccc1Cl	1
O=c1c2cnc3ccc(Cl)cc3c2[nH]n1-c1ccc(Cl)cc1	1.47

[I] COc1cccc(-n2[nH]c3c(cnc4ccccc43)c2=O)c1
[II] O=c1c2cnc3ccccc3c2[nH]n1-c1cccc(Cl)c1
In: Kindly compare I with II and tell me which has the lower Ratio figure. Field: selected label. Fill in the label of the entry you choose.
Out: I

These entries and their values trace back to ChEMBL document CHEMBL1126709.
